experiment: recombinant barcode read abundance after kanamycin selection (control-corrected) (log10(CPM+1)); higher = more efficient recombination; sequences stand for … in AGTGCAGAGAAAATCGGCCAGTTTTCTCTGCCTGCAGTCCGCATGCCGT…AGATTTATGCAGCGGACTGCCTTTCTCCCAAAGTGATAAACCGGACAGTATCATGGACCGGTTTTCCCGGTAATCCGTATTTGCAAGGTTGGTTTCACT; site = the 11-nt target;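 also: IS621 recombinase and bridge RNA in Escherichia coli cells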
assay readout: recombinant barcode read abundance (log10)

Kindly note the recorded recombinant barcode read abundance (log10) for AGGGGCTCTTGGGTTCTAACCTGTTGCTG (site AGGGGCTCTCA) , which is 3.01

Kindly note the recorded recombinant barcode read abundance (log10) for ACACAGACTTGGGTTCTAACCTGTTGCGC (site ACAGAGACTGC) , which is 0.114

Kindly note the recorded recombinant barcode read abundance (log10) for TTATACACTTGGGTTCTAACCTGTTGCAG (site CAGCGGTCTTC) , which is 0.0563

Kindly note the recorded recombinant barcode read abundance (log10) for AACTTATCTTGGGTTCTAACCTGTTGCCT (site AACTGATCTAG) , which is 0.0896

Kindly note the recorded recombinant barcode read abundance (log10) for GTGCAAACTTGGGTTCTAACCTGTTGCCT (site GTGCAAACTAG) , which is 1.23

Kindly note the recorded recombinant barcode read abundance (log10) for GGGGTGTCTTGGGTTCTAACCTGTTGCTG (site GGGCTGTCTAA) , which is 0.448

Kindly note the recorded recombinant barcode read abundance (log10) for CATCTACCTTGGGTTCTAACCTGTTGCGG (site TTGGATACTTG) , which is 0.332

Kindly note the recorded recombinant barcode read abundance (log10) for CGACCCTCTTGGGTTCTAACCTGTTGCCT (site AGACCCTCTAG) , which is 0.0358

Kindly note the recorded recombinant barcode read abundance (log10) for CCGTACTCTTGGGTTCTAACCTGTTGCCT (site CCGTAGTCTAG) , which is 0.0897

Kindly note the recorded recombinant barcode read abundance (log10) for GAGTTGCCTTGGGTTCTAACCTGTTGCGG (site GAGTGGCCTCC) , which is 0.101

Kindly note the recorded recombinant barcode read abundance (log10) for ACTGATGCTTGGGTTCTAACCTGTTGCCT (site ACTGATTCTAG) , which is 0.0409

Kindly note the recorded recombinant barcode read abundance (log10) for TGACGTTCTTGGGTTCTAACCTGTTGCCT (site TGACCTTCTAG) , which is 0.189

Kindly note the recorded recombinant barcode read abundance (log10) for AGCCTCCCTTGGGTTCTAACCTGTTGCCT (site AGACTCCCTAG) , which is 0.089

Kindly note the recorded recombinant barcode read abundance (log10) for TACCGGTCTTGGGTTCTAACCTGTTGCTT (site TACCTGTCTAA) , which is 0.00501

Kindly note the recorded recombinant barcode read abundance (log10) for TAGGATACTTGGGTTCTAACCTGTTGCAG (site TAGGATACTGT) , which is 0.106
